A collection of molecules and their measured IC50
# tested target: human recombinant D2 receptor (Homo sapiens, UniProt P14416)
# Sequence (P14416 whole entry): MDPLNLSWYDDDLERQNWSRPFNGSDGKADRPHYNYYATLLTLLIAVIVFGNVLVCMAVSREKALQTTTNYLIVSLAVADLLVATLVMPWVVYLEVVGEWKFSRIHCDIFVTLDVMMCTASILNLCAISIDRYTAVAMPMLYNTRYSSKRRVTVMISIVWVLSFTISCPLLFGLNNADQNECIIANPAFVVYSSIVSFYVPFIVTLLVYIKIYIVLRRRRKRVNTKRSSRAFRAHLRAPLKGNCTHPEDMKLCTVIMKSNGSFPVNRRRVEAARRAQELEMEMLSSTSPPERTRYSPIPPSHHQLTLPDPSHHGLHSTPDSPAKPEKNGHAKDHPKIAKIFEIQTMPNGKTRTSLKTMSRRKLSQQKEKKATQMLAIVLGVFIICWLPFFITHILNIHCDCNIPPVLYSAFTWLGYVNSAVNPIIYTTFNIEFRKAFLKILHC
# test method notes: D2 antagonistic activity test (LANCE cAMP, antagonism of dopamine inhibition of cAMP production in HEK293 cells)
# run parameters: HEK293 cells expressing human recombinant D2 receptor; test concentration 0.1 nM to 10000 nM; read-out: D2 Antagonistic Activity (IC50, nmol/L)
Where a name gives a salt, the structure may show the parent alone.
measurement kind: IC50 (nmol/L)

{"molecule": "CCCc1cc2c(cc1OC)CCN1Cc3c(ccc(OC)c3OC)C[C@@H]21", "measurement kind": "IC50", "unit name": "nmol/L", "meas value": 280}
{"molecule": "COc1ccc2c(c1OC)CN1CCc3cc(OC)c4[nH]c(=S)[nH]c4c3[C@@H]1C2", "measurement kind": "IC50", "unit name": "nmol/L", "meas value": 20}
{"molecule": "COc1cc2c(cc1C=O)[C@@H]1Cc3ccc(OC)c(OC)c3CN1CC2", "measurement kind": "IC50", "unit name": "nmol/L", "meas value": 210}
{"molecule": "COc1cc2c(cc1OC1CC1)[C@@H]1Cc3ccc(OC)c(OC)c3CN1CC2 [Example 53, hydrochloride]", "measurement kind": "IC50", "unit name": "nmol/L", "meas value": 1300}
{"molecule": "COc1cc2c(cc1N)[C@@H]1Cc3ccc(N)c(OC)c3CN1CC2", "measurement kind": "IC50", "unit name": "nmol/L", "meas value": 440}
{"molecule": "COc1cc2c(cc1OC(F)F)[C@@H]1Cc3ccc(OC)c(OC)c3CN1CC2", "measurement kind": "IC50", "unit name": "nmol/L", "meas value": 390}
{"molecule": "COc1cc2c(cc1C#N)[C@@H]1Cc3ccc(C#N)c(OC)c3CN1CC2", "measurement kind": "IC50", "unit name": "nmol/L", "meas value": 19}
{"molecule": "C=Cc1cc2c(cc1OC)CCN1Cc3c(ccc(OC)c3OC)C[C@@H]21", "measurement kind": "IC50", "unit name": "nmol/L", "meas value": 150}
{"molecule": "COc1ccc2c(c1OC)CN1CCc3cc(OC)c4[nH]c(=O)[nH]c4c3[C@@H]1C2", "measurement kind": "IC50", "unit name": "nmol/L", "meas value": 27}
